test system: biotinyl-Phe-oxazolone; assay: self-aminoacylation, catalytic enhancement (BFO) (fold over background); higher = more active; k-Seq, kA / k0A0; sequences stand for … in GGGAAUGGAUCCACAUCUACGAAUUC…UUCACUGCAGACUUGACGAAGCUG
This sample holds only a part of the variants without activity.
Binary classification by self-aminoacylation, with 2 as an inclusive lower bound for T; all other cases are F.

[[record]]
seq = "CCACCCUGCAAGCAAUCGGUC [Fam1B.1 aminoacylation ribozyme variant]"
classification = "F"


Below: the item to evaluate.
Can AUUGACCUAGGUCAUCGGGGG [Fam2.2 aminoacylation ribozyme variant] be said to have self-aminoacylation at or above 2?
T

* * *

system: biotinyl-Ile-oxazolone; assay: self-aminoacylation, catalytic enhancement (BIO) (fold over background); higher = more active; k-Seq, kA / k0A0; sequences stand for … in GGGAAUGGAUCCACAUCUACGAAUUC…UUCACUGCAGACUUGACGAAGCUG
Fewer inactive variants are shown than the library holds.
Binary classification by self-aminoacylation, with 1 as an inclusive lower bound for Fulfilled; all other cases are Not fulfilled.

Example cases with answers are listed next.
[[record]]
seq = "AUUAACCUGAUCAUCGAGUGA [Fam2.1 aminoacylation ribozyme variant]"
classification = "Fulfilled"

[[record]]
seq = "AAGUUUACUAAUAGUCGCUAG [Fam3.1 aminoacylation ribozyme variant]"
classification = "Fulfilled"

[[record]]
seq = "ACGUUUACUAAUAGUCGCAAG [Fam3.1 aminoacylation ribozyme variant]"
classification = "Fulfilled"


Below: the item to evaluate.
Can AAGUUUGCUAUUAGACGCAAG [Fam3.1 aminoacylation ribozyme variant] be said to have self-aminoacylation at or above 1?
Not fulfilled

* * *

system: biotinyl-Val-oxazolone; assay: self-aminoacylation, catalytic enhancement (BVO) (fold over background); higher = more active; k-Seq, kA / k0A0; sequences stand for … in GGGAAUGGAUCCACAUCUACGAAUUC…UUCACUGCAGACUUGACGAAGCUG
Variants at the floor of the assay were thinned out.
Recorded self-aminoacylation values for a group of sequences are listed next.
Field format: numeric only.

Worked set:
[[record]]
seq = "UUUACUCUGGUCAUCGAGUGA [Fam2.1 aminoacylation ribozyme variant]"
tested_system = "biotinyl-Val-oxazolone"
parameter = "self-aminoacylation"
obs_value = 3.58

[[record]]
seq = "AUCCACCCAGGUCAUCGGGUG [Fam2.2 aminoacylation ribozyme variant]"
tested_system = "biotinyl-Val-oxazolone"
parameter = "self-aminoacylation"
obs_value = 5.18

[[record]]
seq = "CUACUUCAAACACGCGGUCUG [Fam1A.1 aminoacylation ribozyme variant]"
tested_system = "biotinyl-Val-oxazolone"
parameter = "self-aminoacylation"
obs_value = 1.36


Could you now consider this next sequence?
Dear colleague, I am looking for the recorded self-aminoacylation of the following sequence: CCACACUAUAAGCAAUCGGUC [Fam1B.1 aminoacylation ribozyme variant]
0.793

* * *

test system: biotinyl-Leu-oxazolone; test: self-aminoacylation, catalytic enhancement (BLO) (fold over background); higher = more active; k-Seq, kA / k0A0; sequences stand for … in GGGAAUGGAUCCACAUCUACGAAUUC…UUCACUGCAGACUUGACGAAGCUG
Variants at the floor of the assay were thinned out.
Recorded self-aminoacylation values for a group of sequences are listed next.
Field format: numeric only.

Worked set:
[[record]]
seq = "AUUACCCUGGCCAUCGAUUGA [Fam2.1 aminoacylation ribozyme variant]"
tested_system = "biotinyl-Leu-oxazolone"
parameter = "self-aminoacylation"
obs_value = 0.851

[[record]]
seq = "AUUACUCUGGUCAUUGAGUGA [Fam2.1 aminoacylation ribozyme variant]"
tested_system = "biotinyl-Leu-oxazolone"
parameter = "self-aminoacylation"
obs_value = 8.45

[[record]]
seq = "AAGUUUGAUGAUAGUCGCAAG [Fam3.1 aminoacylation ribozyme variant]"
tested_system = "biotinyl-Leu-oxazolone"
parameter = "self-aminoacylation"
obs_value = 1.63

[[record]]
seq = "UUUCACCUAGGCCAUCGGGUG [Fam2.2 aminoacylation ribozyme variant]"
tested_system = "biotinyl-Leu-oxazolone"
parameter = "self-aminoacylation"
obs_value = 4.34

[[record]]
seq = "AUUACCCUGGUCUUGGAGUGA [Fam2.1 aminoacylation ribozyme variant]"
tested_system = "biotinyl-Leu-oxazolone"
parameter = "self-aminoacylation"
obs_value = 3.23


Dear colleague, I am looking for the recorded self-aminoacylation of the following sequence: AGUCACCUAGGUCAUCCGGUG [Fam2.2 aminoacylation ribozyme variant]
6.49

Dear colleague, I am looking for the recorded self-aminoacylation of the following sequence: AUGCACCGAGGUCAUCGGGUG [Fam2.2 aminoacylation ribozyme variant]
6.58

Dear colleague, I am looking for the recorded self-aminoacylation of the following sequence: CUACUUUAAUCAAUCGGUCUG [Fam1A.1 aminoacylation ribozyme variant]
0.78

Dear colleague, I am looking for the recorded self-aminoacylation of the following sequence: CUACUUUAAACGAUCGGUCUG [Fam1A.1 aminoacylation ribozyme variant]
0.863

* * *

Recorded self-aminoacylation values for a group of sequences are listed next.
tested on: biotinyl-Val-oxazolone; experiment: self-aminoacylation, catalytic enhancement (BVO) (fold over background); higher = more active; k-Seq, kA / k0A0; sequences stand for … in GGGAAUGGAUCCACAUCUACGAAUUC…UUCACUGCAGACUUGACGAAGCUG
This sample holds only a part of the variants without activity.

Worked set:
[[record]]
seq = "AAGUUUGCUAAUAGGCGCGAG [Fam3.1 aminoacylation ribozyme variant]"
tested_system = "biotinyl-Val-oxazolone"
parameter = "self-aminoacylation"
obs_value = 0.9

[[record]]
seq = "CCACACCACAAGCAAUCGGUC [Fam1B.1 aminoacylation ribozyme variant]"
tested_system = "biotinyl-Val-oxazolone"
parameter = "self-aminoacylation"
obs_value = 1.1

[[record]]
seq = "CCAGACUUUAAGCAAUCGGUC [Fam1B.1 aminoacylation ribozyme variant]"
tested_system = "biotinyl-Val-oxazolone"
parameter = "self-aminoacylation"
obs_value = 0.922

[[record]]
seq = "AAGUUUGCUAAUAGUAUCAAG [Fam3.1 aminoacylation ribozyme variant]"
tested_system = "biotinyl-Val-oxazolone"
parameter = "self-aminoacylation"
obs_value = 0.928

[[record]]
seq = "CUACUACAAACGAUCGGUCUG [Fam1A.1 aminoacylation ribozyme variant]"
tested_system = "biotinyl-Val-oxazolone"
parameter = "self-aminoacylation"
obs_value = 0.797


Dear colleague, I am looking for the recorded self-aminoacylation of the following sequence: AUUCUCUUAGGUCAUCGGGUG [Fam2.2 aminoacylation ribozyme variant]
5.53

Dear colleague, I am looking for the recorded self-aminoacylation of the following sequence: AAGUUUGCUAAUACUCUCAAG [Fam3.1 aminoacylation ribozyme variant]
0.721

Dear colleague, I am looking for the recorded self-aminoacylation of the following sequence: AUUGACCUAGGGCAUCGGGUG [Fam2.2 aminoacylation ribozyme variant]
3.28

* * *

Recorded self-aminoacylation values for a group of sequences are listed next.
system: biotinyl-Phe-oxazolone; assay: self-aminoacylation, catalytic enhancement (BFO) (fold over background); higher = more active; k-Seq, kA / k0A0; sequences stand for … in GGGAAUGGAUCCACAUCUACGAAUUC…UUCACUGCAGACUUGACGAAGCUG
This sample holds only a part of the variants without activity.
Field format: numeric only.

Worked set:
[[record]]
seq = "AAGUUUGCUAAAAGUCGCAAU [Fam3.1 aminoacylation ribozyme variant]"
obs_value = 1.15

[[record]]
seq = "CUACUUCAAACAAUCGGUCUC [Fam1A.1 aminoacylation ribozyme variant]"
obs_value = 52.6


Dear colleague, I am looking for the recorded self-aminoacylation of the following sequence: UGACUUCAAACAAUCGGUCUG [Fam1A.1 aminoacylation ribozyme variant]
96.8

Dear colleague, I am looking for the recorded self-aminoacylation of the following sequence: UUUCACCUAGGCCAUCGGGUG [Fam2.2 aminoacylation ribozyme variant]
20.8

Dear colleague, I am looking for the recorded self-aminoacylation of the following sequence: AUACUUCAAACAAUCGAUCUG [Fam1A.1 aminoacylation ribozyme variant]
0.915

Dear colleague, I am looking for the recorded self-aminoacylation of the following sequence: CAACACUUCAAGCAAUCCGUC [Fam1B.1 aminoacylation ribozyme variant]
1.12

Dear colleague, I am looking for the recorded self-aminoacylation of the following sequence: AUUACCCUGUUCAGCGAGUGA [Fam2.1 aminoacylation ribozyme variant]
14.4

Dear colleague, I am looking for the recorded self-aminoacylation of the following sequence: CUUCACCUAUGUCAUCGGGUG [Fam2.2 aminoacylation ribozyme variant]
17

Dear colleague, I am looking for the recorded self-aminoacylation of the following sequence: AUUCACCUACGUCAUCGCGUG [Fam2.2 aminoacylation ribozyme variant]
83.5

Dear colleague, I am looking for the recorded self-aminoacylation of the following sequence: AUUACCCUAGCCAUCGAGUGA [Fam2.1 aminoacylation ribozyme variant]
9

Dear colleague, I am looking for the recorded self-aminoacylation of the following sequence: AUGUUUGCUAAAAGUCGCAAG [Fam3.1 aminoacylation ribozyme variant]
4.95

* * *

system: biotinyl-Trp-oxazolone; assay: self-aminoacylation, catalytic enhancement (BWO) (fold over background); higher = more active; k-Seq, kA / k0A0; sequences stand for … in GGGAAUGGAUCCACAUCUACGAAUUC…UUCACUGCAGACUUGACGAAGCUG
Fewer inactive variants are shown than the library holds.
Binary classification by self-aminoacylation, with 2 as an inclusive lower bound for fulfilled; all other cases are not fulfilled.

Example cases with answers are listed next.
[[record]]
seq = "AUUCACCUAGGUCAUCGGCUC [Fam2.2 aminoacylation ribozyme variant]"
tested_system = "biotinyl-Trp-oxazolone"
classification = "fulfilled"

[[record]]
seq = "AUUCACCUAGGACAUCUGGUG [Fam2.2 aminoacylation ribozyme variant]"
tested_system = "biotinyl-Trp-oxazolone"
classification = "fulfilled"


Can AUUCGCCUAGGUCAUCGAGUG [Fam2.2 aminoacylation ribozyme variant] be said to have self-aminoacylation at or above 2?
fulfilled

Can AUUCACCUAAGUCACCGGGUG [Fam2.2 aminoacylation ribozyme variant] be said to have self-aminoacylation at or above 2?
fulfilled

Can ACUACCCUGGUCCUCGAGUGA [Fam2.1 aminoacylation ribozyme variant] be said to have self-aminoacylation at or above 2?
fulfilled

Can AAGUUUGCUGAUAGUCGCUAG [Fam3.1 aminoacylation ribozyme variant] be said to have self-aminoacylation at or above 2?
not fulfilled

Can AAGUUUGCGAAUCGUCGCAAG [Fam3.1 aminoacylation ribozyme variant] be said to have self-aminoacylation at or above 2?
not fulfilled

Can GUCCACCUAGGUCAUCGGGUG [Fam2.2 aminoacylation ribozyme variant] be said to have self-aminoacylation at or above 2?
fulfilled

Can UCACACUUUAAGCAAUCGGUC [Fam1B.1 aminoacylation ribozyme variant] be said to have self-aminoacylation at or above 2?
not fulfilled
